The entries below come with measured GLC values attached.
organism: Rattus norvegicus; assay: Open TG-GATES - Regimen: Single; type: toxicity, organism-based, Sprague-Dawley; parameters: regimen Single, gender Male, age 6 weeks; conditions: in vivo, po, 300 mg/kg, 24 h, tissue Plasma, route gavage, dose level Middle
Write it as a number; the unit mg/dL goes unstated.

Known GLC results, listed for orientation:
compound="Clc1ccccc1CN1CCc2sccc2C1 [TICLOPIDINE]" parameter_measured=GLC recorded_number=182.2
compound="CCc1cc(C(N)=S)ccn1 [ETHIONAMIDE]" parameter_measured=GLC recorded_number=190.8

GET /values?readout=GLC&item= C[C@H](CS)C(=O)N1CCC[C@H]1C(=O)O [CAPTOPRIL]
189.6

Entry under review: O=C(O)c1cn(C2CC2)c2cc(N3CCNCC3)c(F)cc2c1=O [CIPROFLOXACIN] . Reported GLC?
193

Param item = O=C(O)c1cc(/N=N/c2ccc(S(=O)(=O)Nc3ccccn3)cc2)ccc1O [SULFASALAZINE] ; retrieve measured GLC.
187.2

----------
species on record: Rattus norvegicus; assay: Open TG-GATES - Regimen: Single; format: toxicity, organism-based, Sprague-Dawley; design: regimen Single, gender Male, age 6 weeks; conditions: in vivo, po, 1000 mg/kg, 9 h, tissue Plasma, route gavage, dose level High
Reported K by item:
Number only, in meq/L; omit the unit.

Requested field: K. Item: O=C(O)c1cc(/N=N/c2ccc(S(=O)(=O)Nc3ccccn3)cc2)ccc1O
3.5

# input compound: Clc1ccccc1CN1CCc2sccc2C1 ; wanted: its K
3.8

Give the measured K of C[C@H](CS)C(=O)N1CCC[C@H]1C(=O)O .
5.3

Given O=C(O)c1cn(C2CC2)c2cc(N3CCNCC3)c(F)cc2c1=O , state its recorded K.
5.2

May I ask what K has been recorded for CCc1cc(C(N)=S)ccn1 [ETHIONAMIDE] ?
4.3

----------
Readings of ALP for the listed compounds
species on record: Rattus norvegicus; assay: Open TG-GATES - Regimen: Daily Repeat; assay type: toxicity, organism-based, Sprague-Dawley; parameters: regimen Daily Repeat, gender Male, age 6 weeks; conditions: in vivo, po, 0 mg/kg, […], tissue Plasma, route gavage, dose level Control, time 7 day
Please give a number only; it is taken to be in IU/L.

Some solved cases for reference:
compound="Clc1ccccc1CN1CCc2sccc2C1 [TICLOPIDINE]" unit_of_measure=IU/L recorded_number=1176
compound="O=C(O)c1cc(/N=N/c2ccc(S(=O)(=O)Nc3ccccn3)cc2)ccc1O [SULFASALAZINE]" unit_of_measure=IU/L recorded_number=884.4

Please give the measured ALP for this compound: CO[C@H]1/C=C/O[C@@]2(C)Oc3c(C)c(O)c4c(O)c(c(/C=N/N5CCN(C)CC5)c(O)c4c3C2=O)NC(=O)/C(C)=C\C=C\[C@H](C)[C@H](O)[C@@H](C)[C@@H](O)[C@@H](C)[C@H](OC(C)=O)[C@@H]1C [RIFAMPIN]
827

Given the entry CSc1ccc2c(c1)N(CCC1CCCCN1C)c1ccccc1S2 (centres undefined) [THIORIDAZINE] , report its measured ALP.
973

Name the reported ALP value associated with the compound Cn1c(=O)c2[nH]cnc2n(C)c1=O.O [THEOPHYLLINE]
1566.8

Any idea what its ALP is? The compound is NC(=O)N/N=C/c1ccc([N+](=O)[O-])o1 [NITROFURAZONE]
1832.4

Requested field: ALP. Item: CN(C)CCC=C1c2ccccc2CCc2ccccc21 [AMITRIPTYLINE]
1482.8

Quick one: ALP for COc1ccc2c(c1)c(CC(=O)O)c(C)n2C(=O)c1ccc(Cl)cc1 [INDOMETHACIN] ?
925.4

Given the compound COc1ccc(Cc2nccc3cc(OC)c(OC)cc23)cc1OC [PAPAVERINE] , what is its reported ALP?
1358

# get_value(readout='ALP', item= O=C(O)c1cn(C2CC2)c2cc(N3CCNCC3)c(F)cc2c1=O [CIPROFLOXACIN] )
938.8

What measured ALP goes with NC(=O)N1c2ccccc2C=Cc2ccccc21 [CARBAMAZEPINE] ?
993

Give the measured ALP of CCCC(CCC)C(=O)O [VALPROIC ACID] .
909.6

I'd like to know its ALP. The compound in question is CC(=O)Oc1ccccc1C(=O)O [ASPIRIN]
844.4

// query ALP value for entry CCc1cc(C(N)=S)ccn1 [ETHIONAMIDE]
836.8

----------
species on record: Rattus norvegicus; assay: Open TG-GATES - Regimen: Single; assay type: toxicity, organism-based, Sprague-Dawley; set-up: regimen Single, gender Male, age 6 weeks; settings: in vivo, po, 300 mg/kg, 3 h, route gavage, dose level Middle
Below is a list of entries, each paired with its recorded TERMINAL_BW value.
The answer is to be given in g; state only the numeric part.

Some molecules with recorded TERMINAL_BW:
molecule=O=C(O)c1cc(/N=N/c2ccc(S(=O)(=O)Nc3ccccn3)cc2)ccc1O recorded_number=212.5
molecule=O=C(O)c1cn(C2CC2)c2cc(N3CCNCC3)c(F)cc2c1=O recorded_number=184.9
molecule=Clc1ccccc1CN1CCc2sccc2C1 recorded_number=211.8
molecule=C[C@H](CS)C(=O)N1CCC[C@H]1C(=O)O recorded_number=224.2

Turning now to a further record.
What value of measured TERMINAL_BW is listed for CCc1cc(C(N)=S)ccn1 [ETHIONAMIDE] ?
230.2

----------
species on record: Rattus norvegicus; assay: Open TG-GATES - Regimen: Daily Repeat; assay type: toxicity, organism-based, Sprague-Dawley; set-up: regimen Daily Repeat, gender Male, age 6 weeks; settings: in vivo, po, 0 mg/kg, […], tissue Plasma, route gavage, dose level Control, time 7 day
Outcome label depends on LDH relative to 100 IU/L: at/above gives 1 (yes), below gives 0 (no).

Look over these answered cases.
compound=Cn1c(=O)c2[nH]cnc2n(C)c1=O.O assigned_category="1 (yes)"
compound=CC(=O)Oc1ccccc1C(=O)O assigned_category="1 (yes)"
compound=CN(C)CCC=C1c2ccccc2CCc2ccccc21 assigned_category="0 (no)"
compound=NC(=O)N/N=C/c1ccc([N+](=O)[O-])o1 assigned_category="0 (no)"
compound=COc1ccc(Cc2nccc3cc(OC)c(OC)cc23)cc1OC assigned_category="1 (yes)"

Is it the case that NC(=O)N1c2ccccc2C=Cc2ccccc21 [CARBAMAZEPINE] has LDH reaching or exceeding 100 IU/L?
1 (yes)

# check: LDH of O=C(O)c1cn(C2CC2)c2cc(N3CCNCC3)c(F)cc2c1=O is greater than or equal to 100 IU/L
0 (no)

----------
KIDNEY_TOTAL values for the compounds below.
species: Rattus norvegicus; assay: Open TG-GATES - Regimen: Daily Repeat; assay type: toxicity, organism-based, Sprague-Dawley; set-up: regimen Daily Repeat, gender Male, age 6 weeks; details: in vivo, po, 0 mg/kg, […], tissue Kidney, route gavage, dose level Control, time 7 day
The answer is to be given in g; state only the numeric part.

compound="Clc1ccccc1CN1CCc2sccc2C1 [TICLOPIDINE]" parameter_measured=KIDNEY_TOTAL unit_of_measure=g recorded_number=2.1
compound="NC(=O)N/N=C/c1ccc([N+](=O)[O-])o1 [NITROFURAZONE]" parameter_measured=KIDNEY_TOTAL unit_of_measure=g recorded_number=2.1
compound="O=C(O)c1cc(/N=N/c2ccc(S(=O)(=O)Nc3ccccn3)cc2)ccc1O [SULFASALAZINE]" parameter_measured=KIDNEY_TOTAL unit_of_measure=g recorded_number=2.2
compound="COc1ccc(Cc2nccc3cc(OC)c(OC)cc23)cc1OC [PAPAVERINE]" parameter_measured=KIDNEY_TOTAL unit_of_measure=g recorded_number=2.2
compound="CC(=O)Oc1ccccc1C(=O)O [ASPIRIN]" parameter_measured=KIDNEY_TOTAL unit_of_measure=g recorded_number=2.3
compound="CSc1ccc2c(c1)N(CCC1CCCCN1C)c1ccccc1S2 (centres undefined) [THIORIDAZINE]" parameter_measured=KIDNEY_TOTAL unit_of_measure=g recorded_number=2.4

// returns reported KIDNEY_TOTAL for input Cn1c(=O)c2[nH]cnc2n(C)c1=O.O [THEOPHYLLINE]
2.5

Fill in: KIDNEY_TOTAL of COc1ccc2c(c1)c(CC(=O)O)c(C)n2C(=O)c1ccc(Cl)cc1 [INDOMETHACIN] is ___
2.4

Looking for the measured KIDNEY_TOTAL of CO[C@H]1/C=C/O[C@@]2(C)Oc3c(C)c(O)c4c(O)c(c(/C=N/N5CCN(C)CC5)c(O)c4c3C2=O)NC(=O)/C(C)=C\C=C\[C@H](C)[C@H](O)[C@@H](C)[C@@H](O)[C@@H](C)[C@H](OC(C)=O)[C@@H]1C [RIFAMPIN] , can you help?
2.3

Bench note: what KIDNEY_TOTAL did O=C(O)c1cn(C2CC2)c2cc(N3CCNCC3)c(F)cc2c1=O [CIPROFLOXACIN] show?
2.1

I'd like to know its KIDNEY_TOTAL. The compound in question is CCc1cc(C(N)=S)ccn1 [ETHIONAMIDE]
2.5

# lookup: KIDNEY_TOTAL of CN(C)CCC=C1c2ccccc2CCc2ccccc21 [AMITRIPTYLINE]
2

Would you mind telling me what KIDNEY_TOTAL value was observed for NC(=O)N1c2ccccc2C=Cc2ccccc21 [CARBAMAZEPINE] ?
2.3

Suppose we examine the compound C[C@H](CS)C(=O)N1CCC[C@H]1C(=O)O [CAPTOPRIL] ; what KIDNEY_TOTAL value has been reported?
2.3
